Answer each item with its documented binding intensity score (0-4).
Measurement Target: T1, recombinant human integrin αvβ6 (human, UniProt P18564 22-707)
T1 construct: also called αvβ6 (R&D systems); αvβ6 receptor
T1 sequence (chain, as listed by the source limits assumed, chain 1 of 2): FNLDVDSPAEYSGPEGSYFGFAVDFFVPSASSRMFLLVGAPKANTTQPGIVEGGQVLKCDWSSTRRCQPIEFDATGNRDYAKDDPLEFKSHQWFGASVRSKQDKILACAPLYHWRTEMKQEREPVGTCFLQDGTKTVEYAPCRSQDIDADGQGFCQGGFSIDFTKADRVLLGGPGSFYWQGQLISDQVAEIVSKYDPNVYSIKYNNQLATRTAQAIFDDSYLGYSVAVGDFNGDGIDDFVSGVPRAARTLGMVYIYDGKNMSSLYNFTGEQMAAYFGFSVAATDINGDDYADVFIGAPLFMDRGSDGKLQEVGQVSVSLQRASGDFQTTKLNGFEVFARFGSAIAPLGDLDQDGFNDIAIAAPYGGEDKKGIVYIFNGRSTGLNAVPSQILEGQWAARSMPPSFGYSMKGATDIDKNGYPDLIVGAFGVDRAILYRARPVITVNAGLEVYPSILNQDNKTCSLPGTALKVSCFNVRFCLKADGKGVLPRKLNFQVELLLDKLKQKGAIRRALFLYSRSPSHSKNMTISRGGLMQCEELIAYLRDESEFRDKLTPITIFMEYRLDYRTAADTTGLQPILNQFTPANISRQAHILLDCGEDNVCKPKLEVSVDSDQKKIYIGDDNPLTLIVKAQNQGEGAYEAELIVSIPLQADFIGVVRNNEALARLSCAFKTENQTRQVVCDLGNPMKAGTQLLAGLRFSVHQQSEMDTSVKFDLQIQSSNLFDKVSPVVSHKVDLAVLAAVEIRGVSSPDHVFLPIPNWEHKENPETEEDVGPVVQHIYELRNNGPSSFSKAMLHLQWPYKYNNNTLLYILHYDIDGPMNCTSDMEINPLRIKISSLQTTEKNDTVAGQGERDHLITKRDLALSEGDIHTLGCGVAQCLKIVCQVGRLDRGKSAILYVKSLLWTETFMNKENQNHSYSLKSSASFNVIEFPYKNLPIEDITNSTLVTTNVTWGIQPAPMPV
T1 sequence (P18564 22-707 limits assumed, chain 2 of 2): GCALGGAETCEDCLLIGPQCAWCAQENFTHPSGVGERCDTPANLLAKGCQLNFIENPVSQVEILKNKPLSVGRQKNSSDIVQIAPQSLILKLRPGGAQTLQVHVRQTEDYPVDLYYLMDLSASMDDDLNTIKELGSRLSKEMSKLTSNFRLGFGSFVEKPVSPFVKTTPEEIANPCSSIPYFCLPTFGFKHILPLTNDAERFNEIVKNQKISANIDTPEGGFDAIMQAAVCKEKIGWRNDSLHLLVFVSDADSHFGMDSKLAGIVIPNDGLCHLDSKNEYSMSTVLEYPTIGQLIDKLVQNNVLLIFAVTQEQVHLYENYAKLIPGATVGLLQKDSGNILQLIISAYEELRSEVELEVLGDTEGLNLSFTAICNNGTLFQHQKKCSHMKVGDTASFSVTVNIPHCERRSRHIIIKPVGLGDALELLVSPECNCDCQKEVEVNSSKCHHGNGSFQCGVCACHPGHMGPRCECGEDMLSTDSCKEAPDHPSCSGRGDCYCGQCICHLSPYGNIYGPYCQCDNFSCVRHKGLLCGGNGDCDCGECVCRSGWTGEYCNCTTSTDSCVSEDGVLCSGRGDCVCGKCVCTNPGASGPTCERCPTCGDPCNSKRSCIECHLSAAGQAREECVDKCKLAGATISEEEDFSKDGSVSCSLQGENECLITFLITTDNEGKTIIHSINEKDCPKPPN
Test Summary: ELISA: integrin coated on plate, supernatant of transfected 293 cells at 1/10 dilution, anti-mouse IgG-HRP; score normalized to expression;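 also: scale runs from 0 (no apparent binding) to 4 (robust binding), with scores adjusted for clone protein expression as determined by a murine IgG ELISA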
Just the number in score 0-4, nothing appended.

[Q] Suppose we examine the binder C6 VH / RGD3-10 Vk murine IgG (antibody, V domains shown, Murine IgG, supernatant of 293 cells; CDRL1 swap into the C6D4 murine IgG vector, VH not altered; also called C6RGD3-10) VH: QIQLLQSGPELKKPGETVKISCKASGYTFTDYSMHWVKQAPGKGLKWVARINTETGEPTFADDFRGRFAVSLETSASTAYLQINNLKNEDTATYFCAIFYYGRDSWGQGTTLTVSS VL: DIVMTQSPSSLAVSAGEKVTMSCKSSQSLLGRGDLGRLKKQKDHWYQQKPGQSPRLLIYWASTRESGVPDRFTGSGSGTDFTLTISSVQAEDLAVYYCKQSYNLLSFGAGTKLELKR ; what binding intensity score (0-4) value has been reported?
[A] 1

[Q] Same question for C6 VH / RGD3-4 Vk murine IgG (antibody, V domains shown, Murine IgG, supernatant of 293 cells; CDRL1 swap into the C6D4 murine IgG vector, VH not altered; also called C6RGD3-4) VH: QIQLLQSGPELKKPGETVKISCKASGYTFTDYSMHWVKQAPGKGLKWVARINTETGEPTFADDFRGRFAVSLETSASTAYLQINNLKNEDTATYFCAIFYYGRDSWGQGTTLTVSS VL: DIVMTQSPSSLAVSAGEKVTMSCKSSQSLLGRGDLGRLKKQNALAWYQQKPGQSPRLLIYWASTRESGVPDRFTGSGSGTDFTLTISSVQAEDLAVYYCKQSYNLLSFGAGTKLELKR please.
[A] 4

Data credit: patent US20210230279A1
